# target_entity: T1, Rhesus macaque CD4-HIS (Acro Biosystems, Cat. CD4-C52H7) (rhesus macaque, UniProt P16003 26-390)
# T1 construct: Bought reagent; also called Rhesus CD4; rhesus CD4-HIS; not shown: His tag
# experimental_details: BLI Octet, mAb on anti-mouse Fc sensor, rhesus CD4-HIS 25-100 nM, 1:1 global fit;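 note: purified antibodies captured at 10 µg/mL, rhesus CD4 analyte run as a three-concentration serial dilution, irrelevant antibody as reference control, one kinetic constant set per antibody from global fitting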
Hi there, I'd appreciate the recorded koff for every entry that follows.
# output: bare number, implied unit s⁻¹

Prompt: What value of measured koff is listed for 75110_03L12A (antibody, V domains shown, Tested as antibody purified from AlivaMab Mouse hybridoma supernatant (captured by anti-mouse IgG Fc)) VH: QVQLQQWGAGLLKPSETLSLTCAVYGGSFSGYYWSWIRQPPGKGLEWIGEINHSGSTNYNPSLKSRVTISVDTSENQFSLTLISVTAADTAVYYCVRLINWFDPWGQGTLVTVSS VL: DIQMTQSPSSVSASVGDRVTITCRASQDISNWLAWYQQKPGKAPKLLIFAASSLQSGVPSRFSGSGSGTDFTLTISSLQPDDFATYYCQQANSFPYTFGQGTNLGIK ?
Response: 0.016

Prompt: Next binder: 75110_04B08A (antibody, V domains shown, Tested as antibody purified from AlivaMab Mouse hybridoma supernatant (captured by anti-mouse IgG Fc)) VH: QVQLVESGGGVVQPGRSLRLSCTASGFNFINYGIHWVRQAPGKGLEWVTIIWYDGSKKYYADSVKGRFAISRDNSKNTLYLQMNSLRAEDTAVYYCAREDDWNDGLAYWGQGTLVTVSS VL: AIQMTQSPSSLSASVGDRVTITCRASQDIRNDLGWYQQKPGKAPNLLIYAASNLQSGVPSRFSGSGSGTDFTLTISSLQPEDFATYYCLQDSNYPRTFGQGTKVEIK
Response: 0.0048
